# credit: ChEMBL document CHEMBL1143653

SYSTEM: Cytochrome P450 3A4 (Homo sapiens)
EXPERIMENT: Concentration required to inhibit cytochrome P450 isozyme CYP3A4-BzRes in vitro by 50%
Assay type: ADME
ASSAY ENDPOINT: IC50

Exercise: Which IC50 reading was recorded for the compound Cc1cc(-n2ccnc2)cc2[nH]c(-c3c(NCC(O)c4cccc(Cl)c4)cc[nH]c3=O)nc12 (stereo unspecified) ?
Solution: < 18 nM

====

EXPERIMENT: Bioavailability in mouse administered perorally at 20 mg/kg
Type: ADME, organism-based
ASSAY SETUP: in vivo, po
ASSAY ENDPOINT: bioavailability

Exercise: Which bioavailability reading was recorded for the molecule `Cc1cc(N2CCOCC2)cc2[nH]c(-c3c(NC[C@@H](O)c4cccc(Cl)c4)cc[nH]c3=O)nc12` ?
Solution: 50%

====

SYSTEM: Cytochrome P450 1A2 (Homo sapiens, UniProt P05177)
Sequence (P05177 whole entry): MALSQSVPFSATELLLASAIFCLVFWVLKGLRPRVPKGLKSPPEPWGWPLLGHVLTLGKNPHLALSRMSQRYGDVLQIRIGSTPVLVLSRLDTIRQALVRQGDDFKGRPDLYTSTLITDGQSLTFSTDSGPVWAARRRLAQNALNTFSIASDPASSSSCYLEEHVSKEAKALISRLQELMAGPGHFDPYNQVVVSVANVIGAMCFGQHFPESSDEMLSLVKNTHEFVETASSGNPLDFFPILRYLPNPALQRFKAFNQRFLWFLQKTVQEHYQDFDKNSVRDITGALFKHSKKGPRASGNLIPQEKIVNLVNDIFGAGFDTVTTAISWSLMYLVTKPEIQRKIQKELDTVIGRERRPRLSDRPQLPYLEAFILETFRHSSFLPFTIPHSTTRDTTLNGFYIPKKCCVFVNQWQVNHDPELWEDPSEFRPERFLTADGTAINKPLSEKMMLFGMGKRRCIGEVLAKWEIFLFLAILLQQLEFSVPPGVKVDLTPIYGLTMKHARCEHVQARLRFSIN
pIC50: −log10 of the molar value.
ASSAY ENDPOINT: pIC50

Exercise: Which pIC50 reading was recorded for the molecule Cc1cc(-n2ccnc2)cc2[nH]c(-c3c(NCC(O)c4cccc(Cl)c4)cc[nH]c3=O)nc12 (stereo unspecified) ?
Solution: > 7.74

====

SYSTEM: Cytochrome P450 2C9 (Homo sapiens)
Sequence (P11712 whole entry): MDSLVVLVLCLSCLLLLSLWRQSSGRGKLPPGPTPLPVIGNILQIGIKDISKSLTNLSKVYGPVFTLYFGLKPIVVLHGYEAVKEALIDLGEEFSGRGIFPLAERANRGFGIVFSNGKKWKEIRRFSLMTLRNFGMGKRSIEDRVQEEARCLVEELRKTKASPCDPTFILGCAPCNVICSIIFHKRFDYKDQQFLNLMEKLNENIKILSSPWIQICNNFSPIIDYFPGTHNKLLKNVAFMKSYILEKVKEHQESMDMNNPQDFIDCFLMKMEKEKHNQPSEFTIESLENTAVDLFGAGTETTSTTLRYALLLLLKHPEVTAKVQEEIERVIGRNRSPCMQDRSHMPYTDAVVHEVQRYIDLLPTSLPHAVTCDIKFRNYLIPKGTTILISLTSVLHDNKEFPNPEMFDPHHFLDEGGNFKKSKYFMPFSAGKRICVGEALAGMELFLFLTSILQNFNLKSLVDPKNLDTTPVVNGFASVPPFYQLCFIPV
EXPERIMENT: Concentration required to inhibit Cytochrome P450 2C9 in vitro by 50%
ASSAY ENDPOINT: IC50

Exercise: Which IC50 reading was recorded for the compound Cc1cc(-n2ccnc2)cc2[nH]c(-c3c(NCC(O)c4cccc(Cl)c4)cc[nH]c3=O)nc12 (stereo unspecified) ?
Solution: < 18 nM

====

EXPERIMENT: Maximum concentration in mouse administered orally at 20 mg/kg
Format: ADME, organism-based
Design: dose 20 mg/kg, route oral
ASSAY SETUP: in vivo, po
ASSAY ENDPOINT: Cmax
Kindly format the answer as number then unit.

Exercise: Which Cmax reading was recorded for the compound `Cc1cc(N2CCOCC2)cc2[nH]c(-c3c(NC[C@@H](O)c4cccc(Cl)c4)cc[nH]c3=O)nc12` ?
Solution: 3.8 µM

====

EXPERIMENT: Total clearance in dog when administered intravenously at 2 mg/kg
Type: ADME, organism-based, Canis lupus familiaris
Parameters: dose 2 mg/kg, route intravenous
ASSAY SETUP: in vivo, iv, read-out: CLtot
ASSAY ENDPOINT: clearance (mL/min/kg)
API: value field is a number in mL/min/kg; no unit string.

Exercise: Which clearance reading was recorded for the compound `Cc1cc(N2CCOCC2)cc2[nH]c(-c3c(NC[C@@H](O)c4cccc(Cl)c4)cc[nH]c3=O)nc12` ?
Solution: 4.1

====

EXPERIMENT: Steady-state volume of distribution in dog when administered intravenously at 2 mg/kg
Format: ADME, organism-based, Canis lupus familiaris
Design: dose 2 mg/kg, route intravenous
ASSAY SETUP: in vivo, iv, read-out: Vss
ASSAY ENDPOINT: Vd (L/kg)
API: value field is a number in L/kg; no unit string.

Exercise: Which Vd reading was recorded for the molecule `Cc1cc(N2CCOCC2)cc2[nH]c(-c3c(NC[C@@H](O)c4cccc(Cl)c4)cc[nH]c3=O)nc12` ?
Solution: 1.3

====

EXPERIMENT: Bioavailability in monkey at 5 mg/kg oral dose
Type: ADME, organism-based
ASSAY SETUP: cercopithecidae, in vivo
ASSAY ENDPOINT: bioavailability
Kindly format the answer as number then unit.

Exercise: Which bioavailability reading was recorded for the compound `Cc1cc(N2CCOCC2)cc2[nH]c(-c3c(NC[C@@H](O)c4cccc(Cl)c4)cc[nH]c3=O)nc12` ?
Solution: 32%

====

EXPERIMENT: Maximum concentration in dog administered orally at 5 mg/kg
Assay type: ADME, organism-based, Canis lupus familiaris
Design: dose 5 mg/kg, route oral
ASSAY SETUP: in vivo, po
ASSAY ENDPOINT: Cmax (µM)
API: value field is a number in µM; no unit string.

Exercise: Which Cmax reading was recorded for the compound `Cc1cc(N2CCOCC2)cc2[nH]c(-c3c(NC[C@@H](O)c4cccc(Cl)c4)cc[nH]c3=O)nc12` ?
Solution: 4.1

====

SYSTEM: Cytochrome P450 3A4 (Homo sapiens, UniProt P08684)
Sequence (P08684 whole entry): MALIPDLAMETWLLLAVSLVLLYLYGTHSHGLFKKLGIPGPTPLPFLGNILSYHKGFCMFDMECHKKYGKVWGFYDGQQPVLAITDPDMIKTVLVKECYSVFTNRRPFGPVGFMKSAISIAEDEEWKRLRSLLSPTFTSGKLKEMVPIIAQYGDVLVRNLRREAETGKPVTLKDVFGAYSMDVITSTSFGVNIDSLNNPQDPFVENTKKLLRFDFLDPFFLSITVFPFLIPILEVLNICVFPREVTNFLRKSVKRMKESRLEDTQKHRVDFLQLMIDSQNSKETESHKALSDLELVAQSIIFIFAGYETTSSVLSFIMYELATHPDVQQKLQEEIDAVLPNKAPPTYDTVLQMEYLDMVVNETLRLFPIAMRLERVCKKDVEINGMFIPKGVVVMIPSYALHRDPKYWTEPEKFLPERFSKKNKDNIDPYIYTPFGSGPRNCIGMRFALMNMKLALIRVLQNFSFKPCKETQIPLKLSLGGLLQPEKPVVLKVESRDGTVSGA
EXPERIMENT: Concentration required to inhibit cytochrome P450 isozyme CYP3A4-BFC in vitro by 50%
Format: ADME
ASSAY ENDPOINT: IC50

Exercise: Which IC50 reading was recorded for the compound Cc1cc(-n2ccnc2)cc2[nH]c(-c3c(NCC(O)c4cccc(Cl)c4)cc[nH]c3=O)nc12 (stereo unspecified) ?
Solution: < 18 nM

====

EXPERIMENT: In vitro inhibitory concentration against MDA PCa-2b (prostate) cell line with ATP concentration at 1/2Km
Type: functional, Homo sapiens
ASSAY ENDPOINT: pIC50
A value of pIC50 is the negative decimal logarithm of a concentration given in moles per litre.

Exercise: Which pIC50 reading was recorded for the compound `Cc1cc(N2CCOCC2)cc2[nH]c(-c3c(NC[C@@H](O)c4cccc(Cl)c4)cc[nH]c3=O)nc12` ?
Solution: 6.71

====

EXPERIMENT: Bioavailability in dog at 5 mg/kg oral dose
Assay type: ADME, organism-based, Canis lupus familiaris
ASSAY SETUP: in vivo
ASSAY ENDPOINT: bioavailability (%)
API: value field is a number in %; no unit string.

Exercise: Which bioavailability reading was recorded for the molecule `Cc1cc(N2CCOCC2)cc2[nH]c(-c3c(NC[C@@H](O)c4cccc(Cl)c4)cc[nH]c3=O)nc12` ?
Solution: 70

====

EXPERIMENT: Total clearance in rat when administered intravenously at 4 mg/kg
Assay type: ADME, organism-based
Set-up: dose 4 mg/kg, route intravenous
ASSAY SETUP: in vivo, iv, read-out: CLtot
ASSAY ENDPOINT: clearance (mL/min/kg)
API: value field is a number in mL/min/kg; no unit string.

Exercise: Which clearance reading was recorded for the compound `Cc1cc(N2CCOCC2)cc2[nH]c(-c3c(NC[C@@H](O)c4cccc(Cl)c4)cc[nH]c3=O)nc12` ?
Solution: 5.8
